Hi there, I'd appreciate the recorded Kd for every entry that follows.
TESTED_TARGET: T1, citrate synthase, mitochondrial (Sus scrofa, UniProt P00889)
T1 chain: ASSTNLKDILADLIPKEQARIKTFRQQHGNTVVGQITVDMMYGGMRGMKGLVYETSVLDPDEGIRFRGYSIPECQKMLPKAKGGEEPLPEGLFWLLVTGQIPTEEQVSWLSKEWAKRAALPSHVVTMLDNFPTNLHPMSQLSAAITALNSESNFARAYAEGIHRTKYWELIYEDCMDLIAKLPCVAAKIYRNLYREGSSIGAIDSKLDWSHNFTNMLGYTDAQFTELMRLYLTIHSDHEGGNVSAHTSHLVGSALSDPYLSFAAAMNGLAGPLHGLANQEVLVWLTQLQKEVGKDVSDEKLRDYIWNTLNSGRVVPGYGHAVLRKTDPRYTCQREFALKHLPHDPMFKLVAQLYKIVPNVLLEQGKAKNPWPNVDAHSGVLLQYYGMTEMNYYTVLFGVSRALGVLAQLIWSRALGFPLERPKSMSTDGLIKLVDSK
PROTOCOL_SUMMARY: MST
Answers are plain numbers, in µM.

Examples with answers:
Lab note: measured Kd of malate dehydrogenase, mitochondrial (protein, 20 mM ATP) AKVAVLGASGGIGQPLSLLLKNSPLVSRLTLYDIAHTPGVAADLSHIETRATVKGYLGPEQLPDCLKGCDVVVIPAGVPRKPGMTRDDLFNTNATIVATLTAACAQHCPDAMICIISNPVNSTIPITAEVFKKHGVYNPNKIFGVTTLDIVRANAFVAELKGLDPARVSVPVIGGHAGKTIIPLISQCTPKVDFPQDQLSTLTGRIQEAGTEVVKAKAGAGSATLSMAYAGARFVFSLVDAMNGKEGVVECSFVKSQETDCPYFSTPLLLGKKGIEKNLGIGKISPFEEKMIAEAIPELKASIKKGEEFVKNMK was 0.72

Lab note: measured Kd of malate dehydrogenase, mitochondrial (protein, 10 mM acetyl-CoA) AKVAVLGASGGIGQPLSLLLKNSPLVSRLTLYDIAHTPGVAADLSHIETRATVKGYLGPEQLPDCLKGCDVVVIPAGVPRKPGMTRDDLFNTNATIVATLTAACAQHCPDAMICIISNPVNSTIPITAEVFKKHGVYNPNKIFGVTTLDIVRANAFVAELKGLDPARVSVPVIGGHAGKTIIPLISQCTPKVDFPQDQLSTLTGRIQEAGTEVVKAKAGAGSATLSMAYAGARFVFSLVDAMNGKEGVVECSFVKSQETDCPYFSTPLLLGKKGIEKNLGIGKISPFEEKMIAEAIPELKASIKKGEEFVKNMK was 1.1

Lab note: measured Kd of malate dehydrogenase, mitochondrial (protein, 10 mM succinyl-CoA) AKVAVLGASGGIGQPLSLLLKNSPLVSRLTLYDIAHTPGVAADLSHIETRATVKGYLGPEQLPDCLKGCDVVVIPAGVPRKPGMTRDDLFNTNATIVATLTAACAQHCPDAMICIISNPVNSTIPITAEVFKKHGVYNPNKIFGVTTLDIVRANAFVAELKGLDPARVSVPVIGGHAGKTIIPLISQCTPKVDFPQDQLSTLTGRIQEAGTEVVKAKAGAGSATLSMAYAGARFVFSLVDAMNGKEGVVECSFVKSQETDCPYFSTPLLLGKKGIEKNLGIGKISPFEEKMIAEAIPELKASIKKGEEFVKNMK was 1.97

Please find the next binder below.
Lab note: measured Kd of malate dehydrogenase, mitochondrial (protein, 10 mM citrate) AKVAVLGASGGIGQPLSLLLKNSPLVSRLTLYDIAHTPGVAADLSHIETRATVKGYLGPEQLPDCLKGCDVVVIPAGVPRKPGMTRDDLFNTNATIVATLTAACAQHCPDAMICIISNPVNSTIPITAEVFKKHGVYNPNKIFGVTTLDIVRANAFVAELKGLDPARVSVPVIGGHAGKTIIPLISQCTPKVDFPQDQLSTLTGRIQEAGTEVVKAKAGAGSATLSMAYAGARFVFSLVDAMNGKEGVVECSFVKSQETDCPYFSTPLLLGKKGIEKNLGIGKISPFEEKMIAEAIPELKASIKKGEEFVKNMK was 25.1
